- measuredTarget: T1, EGFR-Fc fusion protein (recombinant EGFR extracellular region-Fc) (human, UniProt P00533 25-645)
- T1 construct: extracellular domain; not shown: Fc part supplied by vector pABG1
- testProtocol: BLI ForteBio QKe, biotinylated EGFR-Fc on streptavidin sensor, antibody 20 nM; fold reduction of affinity, parent Ame55 = 1;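 further: parent antibody affinity set as 1, with values giving the fold drop in affinity of each mutant antibody relative to that parent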
reportedProperty: Affinity change (fold)
Numbers only, in fold.

Ame55 mutant, heavy chain 54S (antibody, V domains shown, Mutant of Ame55) VH: EVQLVQSGAEVKKPGESLKISCKGSGYSFTSYWIGWVRQMPGKGLEWMGIIYPSDSDTRYSPSFQGQVTISADKSISTAYLQWSSLKASDTAMYYCARGIIYPSNVAVWGQGTLVTVSS VL: SYELTQPPSVSVAPGQTARITCSGDALGDKYASWYQQKPGQAPVLVIYEDSKRPSGIPERFSGSNSGNTATLTISGTQAEDEADYYCSVWDGDWGMPVFGGGTKLTVLG; 0.5

Please turn your attention to the following entry.
So what does the record say about Affinity change for Ame55 mutant, heavy chain 107G (antibody, V domains shown, Mutant of Ame55) VH: EVQLVQSGAEVKKPGESLKISCKGSGYSFTSYWIGWVRQMPGKGLEWMGIIYPGDSDTRYSPSFQGQVTISADKSISTAYLQWSSLKASDTAMYYCARGIIYPSNVGVWGQGTLVTVSS VL: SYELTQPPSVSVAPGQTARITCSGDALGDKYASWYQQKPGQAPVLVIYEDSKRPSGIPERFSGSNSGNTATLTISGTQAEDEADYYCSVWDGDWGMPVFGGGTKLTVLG ? 1.5
